Test: chemical genetic growth profiling, strain panel (AID 1159580);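 note: tested at 20 µM; growth read once vehicle control cultures reached saturation at 30 °C; 1 = growth at the plate median or of vehicle wells; lower values mean less growth of the strain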
Details: S. cerevisiae deletion strains, growth OD, locus YLR262C, strain YPT6 (second series), active compounds read low
The campaign covered roughly 5,500 compounds. About 2,000 (36%) were called active. Another 18% or so got no clear call; they are omitted. This is one part of the list.
# key: entry, value: normalized growth
Number only, please.

Recorded normalized growth, per entry:
compound	normalized growth
CN1CCN2c3ccccc3Cc3ccccc3C2C1 (stereo not drawn)	0.991
N[C@@H]1CONC1=O	1

Let us examine a further case.
Please give the measured normalized growth for this compound: C=C1C2CC[C@@]3(C)[C@H](c4ccoc4)OC(=O)C[C@]13O[C@H]1CC(=O)C(C)(C)[C@H](C(O)C(=O)OC)[C@@]21C (stereo partly drawn) 1.01

All figures here come from PubChem BioAssay AID1159580.
